Answer each item with its documented pKi.
Molecular target: human NTSR1 (Homo sapiens)
Construct: host or cells: HEK-293 cells (membrane preparations)
Sequence (P30989 whole entry): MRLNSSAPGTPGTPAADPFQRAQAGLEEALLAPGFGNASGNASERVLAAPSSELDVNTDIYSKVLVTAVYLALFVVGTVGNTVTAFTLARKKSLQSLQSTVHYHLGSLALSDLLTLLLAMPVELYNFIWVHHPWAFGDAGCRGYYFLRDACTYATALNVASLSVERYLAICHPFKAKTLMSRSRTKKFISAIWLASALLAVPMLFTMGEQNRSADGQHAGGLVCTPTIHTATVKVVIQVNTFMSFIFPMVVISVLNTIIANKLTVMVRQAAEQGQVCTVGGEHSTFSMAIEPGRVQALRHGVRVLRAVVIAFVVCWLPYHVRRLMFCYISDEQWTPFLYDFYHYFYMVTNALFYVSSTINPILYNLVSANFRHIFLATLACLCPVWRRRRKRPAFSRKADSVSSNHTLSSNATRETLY
Test: radioligand-receptor binding assay, [125I] labeled neurotensin (Eurofins Panlabs)
Conditions: [125I] neurotensin 0.02 nM, membranes from NTSR1 expressing HEK-293 cells, 45 minute incubation, Cheng and Prusoff; read-out: NTSR1 binding Ki
Square brackets hold non-standard residues; d marks the D form. Peptide text beside a SMILES is read from it. * marks the point of attachment. X2 = COc1cc2cc(c1Cl)N(C)C(=O)C[C@H](OC(=O)[C@H](C)N(C)C(=O)CCS*)[C@]1(C)O[C@H]1[C@H](C)[C@@H]1C[C@@](O)(NC(=O)O1)[C@H](OC)/C=C/C=C(\C)C2; Pen = CC(C)(S)[C@H](N)C(=O)O; Tle = CC(C)(C)[C@H](N)C(=O)O
Answers are plain numbers, as −log10 of the molar value.

CC[C@H](C)[C@@H]([C@@H](CC(=O)N1CCC[C@H]1[C@H](OC)[C@@H](C)C(=O)N[C@H](C)[C@@H](O)c1ccccc1)OC)N(C)C(=O)[C@@H](NC(=O)[C@H](C(C)C)N(C)C(=O)OCCSSCCC(=O)NCCCC[C@H](NC(C)=O)C(=O)N1CCC[C@H]1C(=O)N(C)[C@@H](CCCNC(=N)N)C(=O)N[C@@H](CCCNC(=N)N)C(=O)N1CCC[C@H]1C(=O)N[C@@H](Cc1ccc(O)cc1)C(=O)N[C@H](C(=O)N[C@@H](CC(C)C)C(=O)O)C(C)(C)C)C(C)C : 8.94

Proceed to the following item.
Query: I have this compound here, COc1cc2cc(c1Cl)N(C)C(=O)C[C@H](OC(=O)[C@H](C)N(C)C(=O)CCSSC(C)(C)[C@H](NC(C)=O)C(=O)N1CCC[C@H]1C(=O)N[C@@H](CCCNC(=N)N)C(=O)N[C@@H](CCCNC(=N)N)C(=O)N1CCC[C@H]1C(=O)N[C@@H](Cc1ccc(O)cc1)C(=O)N[C@H](C(=O)N[C@@H](CC(C)C)C(=O)O)C(C)(C)C)[C@]1(C)O[C@H]1[C@H](C)[C@@H]1C[C@@](O)(NC(=O)O1)[C@H](OC)/C=C/C=C(\C)C2 [Compound 12] (Ac-[Pen](X2)PRRPY[Tle]L-OH) , and I need its recorded pKi.
Result: 8.99

* * *

Molecular target: human NTSR1 (Homo sapiens)
Construct: host or cells: HEK-293 cells (membrane preparations)
Experiment: radioligand-receptor binding assay, [125I] labeled neurotensin (Eurofins Panlabs)
Conditions: [125I] neurotensin 0.02 nM, membranes from NTSR1 expressing HEK-293 cells, 45 minute incubation, Cheng and Prusoff; read-out: NTSR1 binding Ki
Square brackets hold non-standard residues; d marks the D form. Peptide text beside a SMILES is read from it. * marks the point of attachment. MMAE(N-CO2CH2CH2S) = CC[C@H](C)[C@@H]([C@@H](CC(=O)N1CCC[C@H]1[C@H](OC)[C@@H](C)C(=O)N[C@H](C)[C@@H](O)c1ccccc1)OC)N(C)C(=O)[C@@H](NC(=O)[C@H](C(C)C)N(C)C(=O)OCCS*)C(C)C; X3 = COc1cccc2c1C(=O)c1c(O)c3c(c(O)c1C2=O)C[C@@](O)(C(=O)CO)C[C@@H]3O[C@H]1C[C@H](NC(=O)OCCS*)[C@H](O)[C@H](C)O1; Pen = CC(C)(S)[C@H](N)C(=O)O; Tle = CC(C)(C)[C@H](N)C(=O)O
Answer each item with its documented pKi.
Answers are plain numbers, as −log10 of the molar value.

COc1cccc2c1C(=O)c1c(O)c3c(c(O)c1C2=O)C[C@@](O)(C(=O)CO)C[C@@H]3O[C@H]1C[C@H](NC(=O)OCCSSC(C)(C)[C@H](NC(C)=O)C(=O)N2CCC[C@H]2C(=O)N[C@@H](CCCNC(=N)N)C(=O)N[C@@H](CCCNC(=N)N)C(=O)N2CCC[C@H]2C(=O)N[C@@H](Cc2ccc(O)cc2)C(=O)N[C@H](C(=O)N[C@@H](CC(C)C)C(=O)O)C(C)(C)C)[C@H](O)[C@H](C)O1 [Compound 51] (Ac-[Pen](X3)PRRPY[Tle]L-OH) : 8.87

Query: Query for human NTSR1 (Homo sapiens): what pKi does the record show for CC[C@H](C)[C@@H]([C@@H](CC(=O)N1CCC[C@H]1[C@H](OC)[C@@H](C)C(=O)N[C@H](C)[C@@H](O)c1ccccc1)OC)N(C)C(=O)[C@@H](NC(=O)[C@H](C(C)C)N(C)C(=O)OCCSSC(C)(C)[C@H](NC(C)=O)C(=O)N1CCC[C@H]1C(=O)N[C@@H](CCCNC(=N)N)C(=O)N[C@@H](CCCNC(=N)N)C(=O)N1CCC[C@H]1C(=O)N[C@@H](Cc1ccc(O)cc1)C(=O)N[C@H](C(=O)N[C@@H](CC(C)C)C(=O)O)C(C)(C)C)C(C)C [Compound 55] (Ac-[Pen](MMAE(N-CO2CH2CH2S))PRRPY[Tle]L-OH) ?
Result: 8.82
